# protocol: Inhibition of [3H]colchicine binding to bovine brain tubulin after 20 mins by spectrophotometric analysis
# Design: species or system Bos taurus
measured endpoint: IC50 (µM)

# compound smiles, measured value
records = [
    ("CCOc1ccc(-c2nccn2-c2cc(OC)c(OC)c(OC)c2)cc1Cl", 0.87),
]

* * *

# Tested on: DU-145
# protocol: Antiproliferative activity against human DU145 cells after 48 hrs by MTT assay
# Format: functional, cell-based
# test settings: DU-145, 48 h
pIC50: −log10 of the molar value.

# compound smiles, pIC50
data = [
    ("COc1cc(/C=C(\\c2cc(OC)c(OC)c(OC)c2)c2nnc(-c3cc(OC)c(OC)c(OC)c3)o2)ccc1O", 7.00),
]

# credit: ChEMBL document CHEMBL4261542
